TEST SYSTEM: T1, human C type Lectin Like molecule 1 (CLL-1) on cells (human, UniProt Q5QGZ9 1-265)
T1 construct: also called hCLL-1; CLEC12A
T1 sequence: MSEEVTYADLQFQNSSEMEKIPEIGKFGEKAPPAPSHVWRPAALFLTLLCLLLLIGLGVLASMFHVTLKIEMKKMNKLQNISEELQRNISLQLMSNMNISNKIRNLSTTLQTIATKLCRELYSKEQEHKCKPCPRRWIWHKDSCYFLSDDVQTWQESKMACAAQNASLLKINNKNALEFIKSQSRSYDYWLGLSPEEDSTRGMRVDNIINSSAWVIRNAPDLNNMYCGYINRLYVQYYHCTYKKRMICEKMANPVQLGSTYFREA
EXPERIMENT NOTES: FACS, HL60 AML cell line
REPORTED ENDPOINT: % of live cells with antibody binding (%)
Quick reminder: number only, in %, skip the unit.

In plain terms, CLL-1 antibody clone M29 (antibody, IgG1, V domains shown) VH: EVQLQQSGPELVKPGASVKMSCKASGYIFTSYVMYWVKQKPGQGLEWIGYINPYNDGTKYNEKFKGKATLTSDKSSSTAYMELSSLTSEDSAVYYCARYYDYDYYFDYWGQGTTLTVSS VL: DIQMTQSPSSLSASLGGKVTITCKASQDINKYIAWYQHKPGKGPRLLIHYTSTLQPGIPSRFSGSGSGRDYSFSISNLEPEDIATYYCLQYDYLWTFGGGTKLEIK has a documented % of live cells with antibody binding of 84.6

In plain terms, CLL-1 antibody clone M2 (antibody, IgG1, V domains shown) VH: EVQLRQSGPELVKPGASVKMSCKASGYTFTSYFMHWVKQKPGQGLEWIGFINPYNDGTKYNEKFKGKATLTSDKSSSTAYMELNSLTSEDSAVYYCTRDDGYYDYAMDYWGQGTSVTVSS VL: DIQMTQSPSSLSASLGERVSLTCRASQEISVYLSWLQQKPDGTIKRLIYAASTLDSGVPERFSGSRSGSDYSLTISSLESEDFADYYCLQYASYPYTFGGGTKLEIKR has a documented % of live cells with antibody binding of 90.3

In plain terms, CLL-1 antibody clone M22 (antibody, IgG2a, V domains shown) VH: QVQLQQPGAELVKPGASVKLSCKASGYTFTRYWMHWVKQRPGQGLEWIGNIDPSDTETHYNQQFKDKATLTVDKSSSTAYMQLSSLTSEDSAVYYCAIYYGNPSYYAMDYWGQGTSVTVSS VL: DIVMTQSPSSLTVTAGEKVTMSCKSSQNLLNSGNQKKYLNWYQQKPGQPPKLLIYWASTRESGVPDRFTGSGSGTDFTLTISSVQAEDLAVYFCQNDYSYPFTFGAGTKLELK has a documented % of live cells with antibody binding of 37.2
